tgt: human MET ECD mutant E (mutations 2, 3, 4) (human) (UniProt P08581)
measurement_description: ELISA, WT or mutant hMET ECD coated
measured_quantity: % binding (EMAX) vs WT MET ECD (%)
Report only the number, with the unit % understood.

Q: // query % binding (EMAX) vs WT MET ECD value for entry 71C3 chimeric llama-human IgG1 mAb (antibody, V domains shown, human IgG1 CH1-CH2-CH3 and human CL lambda) VH: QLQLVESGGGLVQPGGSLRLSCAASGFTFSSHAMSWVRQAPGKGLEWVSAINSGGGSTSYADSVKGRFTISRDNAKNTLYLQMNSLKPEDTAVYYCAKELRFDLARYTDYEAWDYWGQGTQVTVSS VL: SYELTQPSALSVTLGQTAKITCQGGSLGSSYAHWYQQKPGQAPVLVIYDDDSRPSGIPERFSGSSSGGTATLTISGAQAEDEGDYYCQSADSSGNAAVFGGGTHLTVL
Ans: 59.6
